Entry source: PubChem BioAssay (NCI)

Tested on: NCI-H322M lung
Experiment Description: NCI-60 one-dose screen, 48 h (100 = growth as untreated, 0 = no growth, -100 = all killed)
Details: 10 µM unless noted
The panel holds about 83,000 compounds, 20% with a hit somewhere; the sample as a whole holds those more often.
Property Measured: growth (%)
One number for each entry, in %.

Examples from the recorded data:
{"columns": ["Query Smiles", "growth / %"],
 "data": [
  ["C#C[C@]1(O)CC[C@H]2[C@@H]3CC=C4c5nc(Nc6ncccn6)sc5CC[C@]4(C)[C@H]3CC[C@@]21C", 74.3],
  ["COc1cc2c(O)n(CCCN3CCOCC3)c3c4cnc5cccc(c(=O)c3c2cc1OC)c54", 47.2],
  ["Nc1cccc2c1C(=O)c1cccc(NC(=O)c3ccccc3)c1C2=O", -7.76],
  ["COc1ncnc2c(-c3ccccc3)cn(COCc3ccccc3)c12", 86.6]
]}

Now take the following compound into account.
What does the record list as growth for "CCCSc1nc(N)nc2nc[nH]c12" ?
161

---

Tested on: RXF 393 renal
Experiment Description: NCI-60 one-dose screen, 48 h (100 = growth as untreated, 0 = no growth, -100 = all killed)
Details: 10 µM unless noted
About 83,000 compounds went through this panel and 20% of them were active in at least one assay; those are over-represented in the sample as a whole.
Property Measured: growth (%)
One number for each entry, in %.

{"columns": ["Compound", "Property Measured", "Obs Value"],
 "data": [
  ["Cc1ccc(-c2cc(-c3ccc(C)cc3)nc(N3CCN(CCNc4ccnc5cc(Cl)ccc45)CC3)n2)cc1", "growth", -14.5],
  ["O=C1COCCN1c1ccc(Nc2nc(Cl)nc(N3CCOCC3)n2)cc1", "growth", 92.4],
  ["O=[N+]([O-])c1cc([N+](=O)[O-])c(NN=C(c2ccc(O)cc2)c2ccc(O)cc2)cc1Cl", "growth", -76.5],
  ["CCCCN(CCCC)CC(O)c1ccc(OCc2ccccc2)c2ccccc12 (stereo unspecified)", "growth", 106],
  ["COc1ccc(/C=C(/C(=O)c2ccc(Cl)cc2)C(=O)C(F)(F)F)cc1", "growth", 104],
  ["O=C(Nc1ccccc1)Nc1ccc(C(=O)/C=C/c2ccc(N3CCCC3)cc2)cc1", "growth", 58.8],
  ["Cc1cc(N2CCCCCC2)nc(N2CCN(CC(=O)Nc3ccc4c(ccn4Cc4ccccc4)c3)CC2)n1", "growth", 6.02],
  ["O=[N+]([O-])c1cccc(N=NNc2cccc([N+](=O)[O-])c2)c1", "growth", 90.2]
]}

// each compound listed below needs its growth
1. O=C(N[C@@H]1CCCc2ccccc21)[C@H](CCC(=O)N1CCN(C2CCCCC2)CC1)N1C(=O)[C@@H](N2C(=O)OC[C@@H]2c2ccccc2)[C@H]1/C=C/c1ccccc1
2. Nc1cc(NN=C(c2ccc(O)cc2)c2ccc(O)cc2)c([N+](=O)[O-])cc1[N+](=O)[O-]
3. CCc1ccc(-c2ccc(COc3ccc(CC4SC(=O)NC4=O)cc3)cc2)cc1 (stereo unspecified)
4. CC(C)OC(=O)Nc1cc(F)c(F)cc1F
5. Nc1cccc2c1C(=O)c1cccc(NC(=O)c3ccccc3)c1C2=O

1: 23; 2: -69.9; 3: 102; 4: 104; 5: -10.7

Below are 8 compounds. Give each one its growth.
1. COc1ccc2c(c1)C(C)Cc1c(Cl)ncnc1N2C (stereo unspecified)
2. COc1cc2c(cc1OC(C)=O)C(=O)CCCC2
3. Cc1cc(SC#N)ncn1
4. Oc1cc(Nc2ccnc3cc(Cl)ccc23)c2ncccc2c1
5. Nc1ccc(Cl)c([N+](=O)[O-])c1
6. CCCCOC(=O)c1c(C)[nH]c(/C=C2\N=C(c3ccc[nH]3)C=C2OC)c1C
7. C[n+]1c2ccccc2nc2c(N)cc(N)cc21
8. Cc1ccc(-c2cn(C/C=C3\C=CN(S(=O)(=O)c4ccccc4)CC3)nn2)cc1

[-8.62, 94.2, 105, 68.6, 109, -12.6, 112, 123]

---

Test system: NCI-H460 lung
Experiment Description: NCI-60 one-dose screen, 48 h (100 = growth as untreated, 0 = no growth, -100 = all killed)
Details: 10 µM unless noted
This is part of a sample that, as a whole, favours compounds with a hit. Of some 83,000 tested, about 20% had one in any assay.
Property Measured: growth (%)
Give bare numbers, in %.

Record excerpt, results attached:
{"columns": ["Compound", "Unit Abbrev", "growth"],
 "data": [
  ["COc1ccc(C(=O)/C=C/c2ccccn2)c(O)c1", "%", 89.7],
  ["COc1ccc(C2CC(c3cc(OC)c(OC)c(OC)c3)=NN2C(C)=O)cc1OCC(=O)Nc1nc2ccc(C(F)(F)F)cc2s1 (stereo not given)", "%", 67.6],
  ["O=C1Nc2ccccc2/C1=C/C(=O)c1ccc(N2CCOCC2)cc1", "%", 101],
  ["COc1cc2c(c(OC)c1OC)-c1cc(I)c(O)cc1[C@@H](NC(C)=O)CC2", "%", 3.02],
  ["N/C(=N\\c1nc2ccccc2[nH]1)NC(=O)Cc1cccc2ccccc12", "%", 84.4]
]}

Below are 4 compounds. Give each one its growth.
1. C#C[C@]1(O)CC[C@H]2[C@@H]3CC=C4c5nc(Nc6ncccn6)sc5CC[C@]4(C)[C@H]3CC[C@@]21C
2. C[C@]12CCc3c(ccc4cc(O)ccc34)[C@@H]1CC[C@H]2O
3. COc1ccc(-c2cc(-c3ccccc3)nc(NCCNc3ccnc4cc(Cl)ccc34)n2)cc1
4. COc1cc(C)cc2oc3oc(=O)c(-c4nc5ccccc5s4)cc3c(=O)c12

31.2
102
-60
84.1

# return growth for each item in the list
1. Cn1cc(-c2noc(-c3cn(C)c4ncc(Br)cc34)n2)c2cc(Cl)ccc21
2. O=C(NCc1ccc(Cn2c(=O)sn(-c3ccccc3)c2=O)cc1)OCc1ccc2c(Br)cc(Br)c(O)c2n1
3. CCOC(=O)c1nn(C2CCCCO2)c2ccc(NC(=O)CN3CCCC3)cc12 (stereo not given)
4. C[C@@H](NC(=O)[C@@H](CC(=O)N1CCC(N2CCCCC2)CC1)N1C(=O)[C@@H](N2C(=O)OC[C@@H]2c2ccccc2)[C@H]1/C=C/c1cccc(Cl)c1)c1ccccc1
5. COc1ccc2c(c1)c(-c1noc(C(=O)c3cn(C)c4ncc(Br)cc34)n1)cn2C
6. Cc1ccc(N)c(O)c1

1. 25.8
2. -21
3. 100
4. 13.3
5. 76.7
6. 100

I'm hoping you can list growth for every compound here, please.
1. COc1ccc(OC)c(NC=O)c1
2. O=C(Nc1cccnc1)c1ccc2ccc3ccc(C(=O)Nc4cccnc4)nc3c2n1
3. Nc1ccc(Cl)c([N+](=O)[O-])c1
4. CCOC(=O)c1c[nH]c2cc(OCC3CC3)c(OCC3CC3)cc2c1=O

105
1.69
104
103

I am curious: what growth value has been reported for CCOC(=O)c1nn(C2CCCCO2)c2ccc(NC(=O)CSc3nc4ccccc4c(=O)[nH]3)cc12 (stereo not given) ?
98.9

---

Assignment: determine reported growth for the given molecules.
Test system: HCT-116 colon
Experiment Description: NCI-60 one-dose screen, 48 h (100 = growth as untreated, 0 = no growth, -100 = all killed)
Details: 10 µM unless noted
About 83,000 compounds went through this panel and 20% of them were active in at least one assay; those are over-represented in the sample as a whole. Active and inactive are the calls of the source. The calls were made as follows: active = growth percent below 10; inactive = the rest.

Some solved entries appear below for comparison.
{"columns": ["Molecule", "System Under Test", "Property Measured", "Obs Value"],
 "data": [
  ["C#C[C@]1(O)CC[C@H]2[C@@H]3CC=C4c5nc(Nc6ccccn6)sc5CC[C@]4(C)[C@H]3CC[C@@]21C", "HCT-116 colon", "growth", "4.49% (active)"],
  ["CC1(C)CC[C@]2(C(=O)O)CC[C@]3(C)C(=CC[C@@H]4[C@@]5(C)C/C(=C/c6cccnc6)[C@H](O)C(C)(C)[C@@H]5CC[C@]43C)[C@@H]2C1", "HCT-116 colon", "growth", "-33.4% [100 µM] (active)"],
  ["O=c1c2c3c(sc2n2cnnc2n1Cc1ccccc1)CCCC3", "HCT-116 colon", "growth", "122% (inactive)"],
  ["CC(C)=CC/C=C(/C)[C@H]1CC[C@]2(C)[C@@H]1CC[C@@H]1[C@@]3(C)CCCNC(C)(C)[C@@H]3CC[C@]12C", "HCT-116 colon", "growth", "-61% [100 µM] (active)"],
  ["Cc1cccc(C[C@H](NC(=O)Nc2ccc(C)cc2F)C(=O)N[C@@H]2C(=O)N3C[C@H](O)C[C@H]3C(=O)N3CCN(C)C[C@H]3C(=O)N[C@@H](C)C(=O)N3C[C@H](C)C[C@H]3C(=O)O[C@H]2C)c1", "HCT-116 colon", "growth", "14.8% (inactive)"],
  ["CSc1nc(N)c(N=Nc2ccc(S(=O)(=O)Nc3nnc(C)s3)cc2)c(=O)[nH]1", "HCT-116 colon", "growth", "109% (inactive)"],
  ["CCCCCCNC(=O)Nc1ncnc2c1ncn2-c1ccccc1", "HCT-116 colon", "growth", "90.2% (inactive)"],
  ["C/C=C/C1OC23CCCCC2C(C#N)(C(=N)O3)C1(C#N)C#N (centres undefined)", "HCT-116 colon", "growth", "94.2% (inactive)"]
]}

Fill in growth for each of the 7 molecules listed.
1. C=C(C)[C@@H]1CC[C@]2(C(=O)N3CCN(C)CC3)CC[C@]3(C)[C@H](CC[C@@H]4[C@@]5(C)C/C(=C/c6ccncc6)[C@H](O)C(C)(C)[C@@H]5CC[C@]43C)[C@@H]12
2. Cn1cc(-c2nnc(-c3ccccc3)s2)c2cc(Br)cnc21
3. Cc1cc2c(C(C)C)c(O)c(O)c(C=NCc3ccoc3)c2c(O)c1-c1c(C)cc2c(C(C)C)c(O)c(O)c(C=NCc3ccco3)c2c1O
4. COc1ccc2c(c1)C(C)Cc1c(Cl)ncnc1N2C (centres undefined)
5. Cc1cc(N2CCCCCC2)nc(N2CCN(CC(=O)Nc3ccc4c(ccn4Cc4ccccc4)c3)CC2)n1
6. Cc1ccc(-c2cc(O)c(-c3ccc(C)cc3C)cc2O)c(C)c1
7. C#C[C@]1(O)CC[C@H]2[C@@H]3CC=C4c5nc(Nc6ccccc6[N+](=O)[O-])sc5CC[C@]4(C)[C@H]3CC[C@@]21C

1: -79.3% [100 µM] (active); 2: 108% (inactive); 3: 20.7% (inactive); 4: 7.03% (active); 5: 32% (inactive); 6: 23.9% (inactive); 7: 45.7% (inactive)
